Collected raw data 2 values appear next to each entry.
tested-on: tau (Homo sapiens, UniProt P10636)
Sequence (P10636 623-695 limits assumed): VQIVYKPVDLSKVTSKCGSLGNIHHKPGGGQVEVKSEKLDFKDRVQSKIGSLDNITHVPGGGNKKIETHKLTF
assay-comment: MCE Phenols Library screening, tau biosensor cell seeding assay (AvZ)
Assay type: cell-based
applied-conditions: raw puncta, replicate 2
Form field (numeric): enter value without unit.

Below: 3 compounds and their reported raw data 2.
[[record]]
compound = "COc1cc(O)c2c(=O)c(O[C@@H]3O[C@H](CO)[C@@H](O)[C@H](O)[C@H]3O)c(-c3ccc(O[C@@H]4O[C@H](CO)[C@@H](O)[C@H](O)[C@H]4O)cc3)oc2c1 [Complanatuside]"
result_number = 10224.5

[[record]]
compound = "Cc1cc(=O)c2c(O)cc(O)cc2o1"
result_number = 7881.17

[[record]]
compound = "CC(=O)CCc1ccc(O)cc1"
result_number = 4541.81


For the next question, use this compound.
Quick one: raw data 2 for C/C=C/c1ccc(OC(C)=O)c(OC)c1 [Isoeugenol acetate] ?
15313.2

----------
tested-on: tau (Homo sapiens, UniProt P10636)
assay-comment: MCE Phenols Library screening, tau biosensor cell seeding assay (AvZ)
Format: cell-based
applied-conditions: average puncta of the two replicates
measurement-kind: av puncta
Form field (numeric): enter value without unit.

Below: 3 compounds and their reported av puncta.
[[record]]
compound = "O=c1ccoc2cc(O)ccc12 [7-Hydroxy-4H-chromen-4-one]"
tested_on = "tau (Homo sapiens, UniProt P10636)"
result_number = 16165.1

[[record]]
compound = "COc1cc(CCCO)cc(OC)c1O [Dihydrosinapyl alcohol]"
tested_on = "tau (Homo sapiens, UniProt P10636)"
result_number = 16004.7

[[record]]
compound = "COc1cc2c(=O)c(-c3ccc(O)cc3)coc2cc1O"
tested_on = "tau (Homo sapiens, UniProt P10636)"
result_number = 17498.7


Value wanted: av puncta (tau (Homo sapiens, UniProt P10636)) of entry CC(=O)N[C@@H](Cc1ccc(O)cc1)C(=O)O
14449.6

Repeat with O=C(/C=C/c1ccc(O)cc1)C1=C(O)C(O)([C@@H]2O[C@H](CO)[C@@H](O)[C@H](O)[C@H]2O)C(O)=C([C@@H]2O[C@H](CO)[C@@H](O)[C@H](O)[C@H]2O)C1=O (stereo partly drawn) [Hydroxysafflor yellow A]
12310.1

Repeat with Cl.Oc1ccc(CC2NCCc3cc(O)c(O)cc32)cc1 (stereo not drawn) [Higenamine (hydrochloride)]
12469.5

Repeat with CC(=O)CCc1ccc(O)cc1
15608.2

Repeat with O=c1oc2cc(O)ccc2c2oc3cc(O)ccc3c12
16558.4

Repeat with Oc1ccc2c(c1)OCO2
13948.1

----------
tested-on: tau (Homo sapiens)
assay-comment: MCE Phenols Library screening, tau biosensor cell seeding assay (AvZ)
Format: cell-based
applied-conditions: Z score, replicate 1
Cut-off 0.08 on Z repl 1: below means 1.0, at or above means 0.0.

[[record]]
molecule = "O=C(/C=C/c1ccc(O)c(O)c1)O[C@@H]1C[C@](O)(C(=O)O)C[C@@H](OC(=O)/C=C/c2ccc(O)c(O)c2)[C@H]1O"
label_value = 1.0


Strictly below 0.08 in Z repl 1? COc1ccc(O)cc1
0.0

Repeat with CCCOC(=O)c1ccc(O)cc1
0.0

Repeat with COc1cc2c(cc1O)CC[C@@H]1[C@@H]2CC[C@]2(C)[C@@H](O)CC[C@@H]12
0.0

Repeat with COc1ccc(-c2oc3c(CC=C(C)C)c(O)cc(O)c3c(=O)c2O[C@@H]2O[C@@H](C)[C@H](O)[C@@H](O)[C@H]2O)cc1 [Baohuoside I]
0.0

Repeat with COc1ccc(CCO[C@@H]2O[C@H](CO[C@@H]3O[C@H](CO)[C@H](O)[C@H](O)[C@H]3O)[C@@H](OC(=O)/C=C/c3ccc(O)c(OC)c3)[C@H](O[C@@H]3O[C@@H](C)[C@H](O)[C@@H](O)[C@H]3O)[C@H]2O)cc1O [Jionoside B1]
0.0

Repeat with O=C(O)c1cc(O)c2cccc(O)c2n1
0.0
